Assay: A CellTox Green Cytotoxicity Assay to monitor cytotoxicity in HEK293 cells - 40 hour (AID 1224871); also: nearly all actives have a fitted effect of over 45% in size
Conditions: CellTox Green fluorescence; series mostly up to 76.8 µM
Inconclusive results are not listed. The source made the active and inactive calls. Calls follow the shape of the dose curve; as a rule, active = well fitted activation curve with a large enough effect in the repeat runs; inconclusive = weak or mixed curves; inactive = flat fitted curve, though single readings scatter.
Please answer using one outcome listed in True (active), False (inactive)

Example entries begin here.
CC(C)(C)C(=O)O    False
CC(C)C(=O)O    False
CCCCC/C(=C\c1ccccc1)CO    True

For `Cc1ccnc2ccccc12` , what call appears in the results of this test?
False

For `CC(C)(C)CC(C)(C)c1ccc(OCCO)cc1` , what call appears in the results of this test?
True

For `CC(=O)Oc1ccc(C(=C2CCCCC2)c2ccc(OC(C)=O)cc2)cc1` , what call appears in the results of this test?
False
